# run.conditions: buffer; pH 7.4; 200.0 µM
assay.metric: solubility kinetic

Would you please look over these solved cases?
- compound: "O=C(Nc1ccccc1C(=O)Nc1ccccn1)c1ccccc1F"
  solubility kinetic: "2 µg/mL"
- compound: "COc1cccc(OC)c1C(=O)OCC(=O)NCC(C)C"
  solubility kinetic: "> 44.3 µg/mL"

Next, consider the following compound.
Task: Dear colleague, I am looking for the recorded solubility kinetic of the following compound: CCOC(=O)CN1C(=O)CC(c2ccccc2)C1=O (stereo not drawn)
Result: > 39.2 µg/mL

====

# run.conditions: buffer; pH 7.4; 200.0 µM
Listed here are molecules together with their documented solubility kinetic.
Please respond with the number in µg/mL and leave the unit unwritten.

- molecule: "COc1ccc(S(=O)(=O)N2CCCC2)cc1Br"
  units.symbol: "µg/mL"
  solubility kinetic: 33.9
- molecule: "CCCOc1cccc(C(=O)Nc2cccc3ncccc23)c1"
  units.symbol: "µg/mL"
  solubility kinetic: 7.6
- molecule: "CC1CN(S(=O)(=O)c2cccc(C(=O)OCC(=O)N3CCCCCC3)c2)CC(C)O1 (configuration not stated)"
  units.symbol: "µg/mL"
  solubility kinetic: 12.9

Task: Dear colleague, I am looking for the recorded solubility kinetic of the following molecule: CCc1ccccc1NC(=O)C1CCCC1
Result: 29.7

Task: Dear colleague, I am looking for the recorded solubility kinetic of the following molecule: O=C(O)c1ccccc1Nc1ccc([N+](=O)[O-])c2nonc12
Result: 29.5
